# Tested on: HL-60(TB) leukemia
# experiment_description: NCI tumour cell line growth inhibition, 48 h
parameter_measured: log10 TGI (log10 of the value in µM)
Log scale reminder: TGI in µM, then log10 taken.

In the examples that follow, each entry is paired with its recorded log10 TGI.
compound | parameter_measured | measured_result
CCCCCCCCCCCCn1c(C)nc2ccccc21 | log10 TGI | 1.27
CC(C)(C)N=C1CC(C)(C)c2ccccc2C(=Nc2ccccc2)S1 | log10 TGI | 1.56
c1ccc2c(CNCCCCCCNCc3cccc4ccccc34)cccc2c1 | log10 TGI | 0.54
CCOC(=O)C(C)(C)Oc1ccc2c(=O)cc(-c3ccccc3)oc2c1 | log10 TGI | 1.52
CC(C)C[C@H](NC(=O)[C@H](CCc1ccccc1)NC(=O)CN1CCOCC1)C(=O)N[C@@H](Cc1ccccc1)C(=O)N[C@@H](CC(C)C)C(=O)[C@@]1(C)CO1 | log10 TGI | -1.03

Now consider the entry below.
[ask] Give its log10 TGI value. Item: CCC1C(C)c2c([nH]c3ccccc23)C2C(=O)N(c3ccccc3)C(=O)C21 (stereo unspecified)
[reply] 1.53

====

# System: SN12C renal
# experiment_description: NCI tumour cell line growth inhibition, 48 h; in the data active = GI50 below about 0.43 µM; inactive = the rest
Form entry, call: pick from active, inactive

Sample answers from the record:
compound | test_system | class_name
CC1(C)CCC[C@]23C(=O)O[C@](O)(C(=O)C4=C[C@@](C)(/C=C/CCCc5ccc6ccc7cccc8ccc5c6c78)CC[C@@]42O)[C@@H]13 | SN12C renal | active
Nc1ncnc2c1c(C(F)(F)F)cn2[C@@H]1O[C@H](CO)[C@@H](O)[C@H]1O | SN12C renal | active
C#CCN1C(=O)/C(=c2\sc3n(c2=O)C2C(NN=3)N(CC)C(=O)N2CC)c2ccccc21 (centres undefined) | SN12C renal | inactive
OC(c1ccc(Cl)cc1)(c1ccc(Cl)cc1)C(O)(c1ccc(Cl)cc1)c1ccc(Cl)cc1 | SN12C renal | inactive

[ask] GET /call?item= COc1cc(C)c(C(=O)O[C@H]2[C@H](O[C@H]3[C@@H](O)COC(O[C@H]4C[C@H]5[C@@H]6CC=C7C[C@@H](O)CC[C@]7(C)[C@H]6CC[C@]5(C)[C@H]4[C@H](C)C(=O)CCC(C)C)[C@@H]3OC(C)=O)OC[C@@H](O)[C@@H]2O)c(C)c1 (some centres undefined) returns the recorded outcome of this test.
[reply] inactive

[ask] Just curious, what result did O=C(NCc1cccnc1)/C(=C\c1ccc(Br)cc1)S(=O)(=O)c1ccccc1 get here?
[reply] inactive

[ask] Check the results log: what was the call for CC(CN=C(CC(=O)c1ccc(Br)cc1)c1ccccc1)N=C(CC(=O)c1ccc(Br)cc1)c1ccccc1 (centres undefined) ?
[reply] inactive

[ask] For COc1cc(-c2cc(-c3ccc(N(C)C)cc3)nc(N3CCOCC3)c2C#N)cc(OC)c1OC , which call appears in the assay record?
[reply] inactive

[ask] Outcome logged for Cn1c2ccccc2c(=Nc2ccccc2)c2c3ccccc3[nH]c21 in this assay:
[reply] inactive

[ask] What was the test verdict on CCCCCCCCCCCCn1c(C)nc2ccccc21 ?
[reply] inactive

====

# TGI per record follows
# Tested on: CCRF-CEM leukemia
# experiment_description: NCI tumour cell line growth inhibition, 48 h

molecule | parameter_measured | measured_result
C#CCNC(Cc1cnc[nH]1)C(=O)O (stereo not given) | TGI | > 100 µM
Cn1nc(C(F)(F)F)c(-c2ccc(Cl)c(C(F)(F)F)c2)c1-c1ccc(OCc2ccc(Cl)cc2)cc1O | TGI | 6.81 µM
COc1ccc(/C=C/c2c(C(=O)/C=C/c3ccc(Cl)cc3)c(C)nc3ccccc23)cc1 | TGI | > 100 µM
N#Cc1c(Nc2ccc(F)cc2)[n+]([O-])c2ccc(Cl)cc2[n+]1[O-] | TGI | > 100 µM
CCOC(=O)c1nc2c3c(ncn2n1)Oc1c(c(-c2ccccc2)nn1-c1ccccc1)C3c1ccc(Cl)cc1 (stereo not given) | TGI | > 100 µM
Cc1cc(NS(=O)(=O)c2ccc(Nc3c4ccccc4nc4c(C(=O)Nc5ccc(S(=O)(=O)N=C(N)N)cc5)cccc34)cc2)no1 | TGI | > 100 µM

[ask] Look up TGI for this molecule: CCCCCCCCCCCCn1c(C)nc2ccccc21
[reply] 21.2 µM

[ask] Find the recorded TGI belonging to Cc1ccc2c(c1)C(=O)c1c-2n(CCCN)c(=O)c2cc([N+](=O)[O-])ccc12 and report it.
[reply] 0.0559 µM

[ask] GET /values?readout=TGI&item= Nc1nc2c(ncn2C2OC(CO)C(O)C2N)c(=O)[nH]1 (stereo not given)
[reply] > 100 µM

[ask] Which TGI reading was recorded for the molecule C/C(=C\c1ccc(Cl)cc1)C(C)(C)C(=O)O ?
[reply] > 100 µM
